- Study target: Beta-adrenergic receptor kinase 1 (Homo sapiens)
- Protocol text: GRK2 binders displacing RNA aptamer, biochemical, validation, human GRK2, bead flow cytometry (AID 488806)
- Assay conditions: bead-bound GRK2, FAM-aptamer displacement, at 10 µM, stronger effect = higher value
Endpoint: aptamer binding inhibition (%)
Quick note: give the figure in %, leave out the unit.

Below are worked cases with known answers.
>  <Compound>
Cn1cc(CN2CCN(CCO)CC2)c(-c2ccc(Oc3ccccc3)cc2)n1

>  <Endpoint>
aptamer binding inhibition

>  <Observed result>
0

$$$$
>  <Compound>
CC[C@H]1CN2CCc3cc(OC)c(OC)cc3[C@@H]2C[C@@H]1C[C@H]1NCCc2cc(OC)c(OC)cc21

>  <Endpoint>
aptamer binding inhibition

>  <Observed result>
-7

$$$$
>  <Compound>
Cc1ccc2c(c1)C1OCCC1C1N2C(=O)C2C(C(=O)O)C3C=CC21O3 (stereo unspecified)

>  <Endpoint>
aptamer binding inhibition

>  <Observed result>
11

$$$$
>  <Compound>
CN/C(=C/[N+](=O)[O-])NCCSCc1ccc(CN(C)C)o1

>  <Endpoint>
aptamer binding inhibition

>  <Observed result>
-20

$$$$
>  <Compound>
CC(=O)CC(c1ccc([N+](=O)[O-])cc1)c1c(O)c2ccccc2oc1=O (stereo unspecified)

>  <Endpoint>
aptamer binding inhibition

>  <Observed result>
-1

$$$$
>  <Compound>
COc1cc(C(=O)Nc2cccc(-c3nnc(-c4ccco4)o3)c2)ccc1OC(C)=O

>  <Endpoint>
aptamer binding inhibition

>  <Observed result>
5

$$$$
>  <Compound>
CC[N+](C)(C)c1cccc(O)c1

>  <Endpoint>
aptamer binding inhibition

>  <Observed result>
56

$$$$
>  <Compound>
Cc1nc2ccccc2n1CC(O)Cn1c2ccccc2c2ccccc21 (stereo unspecified)

>  <Endpoint>
aptamer binding inhibition

>  <Observed result>
2

$$$$

Record lookup: for Beta-adrenergic receptor kinase 1 (Homo sapiens), what aptamer binding inhibition belongs to O=C(CS(=O)(=O)Cc1ccccc1)NCc1ccc2c(c1)OCO2 ?
1

Lookup CC(C)=CCC(C)(C)/C=N/NC(N)=O
4

Lookup COc1cccc(=O)c2c(C)n(CC(=O)c3ccccc3)c(C)c12
-1

----------
- Protocol text: TOR pathway GLN3 branch reporter MEP2-GFP changes – S. cerevisiae, multiplex flow cytometry, primary screen (AID 1867);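 note: median GFP channel fluorescence of barcode-gated MEP2-GFP cells measured by flow cytometry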
- Assay conditions: S. cerevisiae MEP2-GFP strain, 3 h, at 10 µM, stronger effect = higher value, 100% means same as DMSO wells
Inconclusive results are not listed.
Endpoint: GFP response vs DMSO (%)
Quick note: give the figure in %, leave out the unit.

Below are worked cases with known answers.
>  <Molecule>
COc1ccccc1/C=C/CN1CCN(Cc2ccc(F)cc2)C(CCO)C1 (stereo unspecified)

>  <Observed result>
98.8

$$$$
>  <Molecule>
Cc1ccc(S(=O)(=O)N2CCC(C(=O)N[C@@H](C)C(=O)NC3CCS(=O)(=O)C3)CC2)cc1 (stereo partly specified)

>  <Observed result>
96.6

$$$$
>  <Molecule>
O=C(Cc1cccc2ccccc12)N1CC[C@@]2(O)CCCC[C@H]2C1

>  <Observed result>
138

$$$$
>  <Molecule>
CSCCC(NC(=O)/C(=C/c1ccc2c(c1)OCO2)NC(=O)c1cccc([N+](=O)[O-])c1)C(=O)O (stereo unspecified)

>  <Observed result>
123

$$$$
>  <Molecule>
CCc1cc2c(C)cc(=O)oc2cc1OC(=O)C1CCCN1C(=O)OC(C)(C)C (stereo unspecified)

>  <Observed result>
95.2

$$$$

Consider now this further molecule.
So what's the measured GFP response vs DMSO for this one? CC(=O)OCC#CCSc1nc2ccccc2n1C
89.7

----------
GFP response vs DMSO values, listed per item
- Protocol text: TOR pathway GLN3 branch reporter MEP2-GFP changes – S. cerevisiae, multiplex flow cytometry, primary screen (AID 1867);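 note: median GFP channel fluorescence of barcode-gated MEP2-GFP cells measured by flow cytometry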
- Assay conditions: S. cerevisiae MEP2-GFP strain, 3 h, at 10 µM, stronger effect = higher value, 100% means same as DMSO wells
Results filed as inconclusive are left out.
Quick note: give the figure in %, leave out the unit.

Below are worked cases with known answers.
>  <Compound>
O=C(CC(NC(=O)OCc1ccccc1)C(=O)O)OCc1ccccc1 (stereo unspecified)

>  <Unit string>
%

>  <GFP response vs DMSO>
99.3

$$$$
>  <Compound>
CCOC(=O)c1ncn2c1CN(C)C(=O)c1cc(F)ccc1-2

>  <Unit string>
%

>  <GFP response vs DMSO>
96.6

$$$$
>  <Compound>
NNC(=O)c1cc(O)c(O)c(O)c1

>  <Unit string>
%

>  <GFP response vs DMSO>
88.8

$$$$

So what's the measured GFP response vs DMSO for this one? CC(=O)Oc1ccc(C(c2ccc(OC(C)=O)cc2)c2ccccn2)cc1
104

Lookup O=C(c1cc2cc(Br)ccc2o1)N1CCCC1
106

Lookup O=C1OC(c2ccccc2)=C/C1=C/c1cccs1
99.3

Lookup Cn1c(Oc2ccc3c(c2)OCO3)nc2c1c(=O)n(Cc1ccccc1)c(=O)n2C
102

Lookup c1ccc2c(c1)CCOC2CNCCCN1CCCCC1 (stereo unspecified)
142

Lookup COc1cc(C(=O)Nc2ccc(N(C)C)cc2)c([N+](=O)[O-])cc1OC
104

Lookup Cc1cc(Cl)cc2c1NC(=O)[C@]21[C@@H]2C(=O)N(Cc3ccccc3)C(=O)[C@@H]2[C@@H]2CCCN21
95.7

Lookup CC(C)C(=O)Nc1cccnc1
99.6

----------
- Study target: AP-2 complex subunit beta (Homo sapiens)
- Protocol text: beta-arrestin/AP2 interaction blockers – biochemical, validation set, GST-AP2 beads, flow cytometry, pilot screen (AID 504541);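 note: AP2 carries R879A mutation and is captured from E. coli lysate; bead-bound FITC arrestin peptide fluorescence measuring arrestin peptide binding to AP2; 0% = DMSO wells and 100% = excess unlabeled arrestin peptide control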
- Assay conditions: FITC arrestin peptide, at 10 µM, stronger effect = higher value, AP2 beta2 appendage fragment, R879A mutant
inhibition values, listed per item
Quick note: give the figure in %, leave out the unit.

Below are worked cases with known answers.
>  <Compound>
COc1cc(C2NCCc3c2[nH]c2ccccc32)ccc1OC(C)C (configuration not stated)

>  <Observed result>
1.29

$$$$
>  <Compound>
COC(=O)c1ccc(-c2ncc(-c3cccc4ccccc34)o2)cc1

>  <Observed result>
21.1

$$$$
>  <Compound>
Cc1cc(C)cc(Nc2nc3c([nH]2)c(=O)n(C)c(=O)n3C)c1

>  <Observed result>
61

$$$$
>  <Compound>
COc1ccc(C2NCCC3(O)CCCCC23)c(OC)c1OC (configuration not stated)

>  <Observed result>
10.4

$$$$
>  <Compound>
C[C@H](CCC(=O)O)[C@H]1CC[C@H]2[C@@H]3C(=O)C[C@@H]4CC(=O)CC[C@]4(C)[C@H]3CC(=O)[C@]12C

>  <Observed result>
10.1

$$$$

So what's the measured inhibition for this one? COc1cc2cc(C)nc(Cc3cccc4ccccc34)c2cc1OC
8.39

Lookup CNC(=O)Oc1ccc2c(c1)[C@]1(C)CCN(C)[C@@H]1N2C
-9.24

Lookup O=C(O)c1ccc(-c2ccc(O)c(F)c2)cc1
-6.99

Lookup CC(C)C12CN3CC(C(C)C)(CN(C1)C3c1ccccc1O)C2=O (configuration not stated)
-9.47

Lookup O=C1Cc2ccccc2C(c2ccccc2)N1 (configuration not stated)
56.3

Lookup Cc1cccc(Nc2ncccc2C(=O)O)c1C
1.75

Lookup Cc1cc(=O)c2c(O)c(O)ccc2o1
-12.7

Lookup Cc1ccc(S(=O)(=O)NC(C(=O)Oc2cc3oc(=O)cc(C)c3cc2Cl)C(C)C)cc1 (configuration not stated)
-3.53

Lookup CS(=O)(=O)Nc1cccc(C(=O)CC2(O)C(=O)Nc3ccc(Br)cc32)c1 (configuration not stated)
50

Lookup O=C(Nc1ccccc1C(=O)N1CCCCCC1)c1ccccc1Cl
26.6

Lookup C[C@]12CC[C@@H]3c4ccc(O)cc4[C@@H](O)C[C@H]3[C@@H]1CC[C@@H]2O
-3.62

Lookup CC1(C)CC(=O)c2cnc(NC(=O)C3CCCC3)nc2C1
-7.26

----------
- Study target: Beta-2 adrenergic receptor (Homo sapiens) (UniProt P07550)
- Sequence (P07550 whole entry, looked up): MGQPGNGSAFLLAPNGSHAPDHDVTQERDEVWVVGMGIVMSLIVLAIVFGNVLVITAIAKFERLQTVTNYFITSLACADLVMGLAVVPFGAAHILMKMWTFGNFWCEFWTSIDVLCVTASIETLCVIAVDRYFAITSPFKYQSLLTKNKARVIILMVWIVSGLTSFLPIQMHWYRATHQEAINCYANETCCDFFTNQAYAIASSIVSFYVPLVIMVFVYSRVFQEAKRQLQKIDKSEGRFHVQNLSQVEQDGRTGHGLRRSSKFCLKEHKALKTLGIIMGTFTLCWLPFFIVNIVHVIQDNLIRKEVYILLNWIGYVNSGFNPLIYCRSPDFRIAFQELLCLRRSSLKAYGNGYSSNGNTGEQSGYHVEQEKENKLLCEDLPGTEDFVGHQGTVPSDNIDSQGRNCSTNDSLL
- Protocol text: agonist-induced loss of surface beta2AR – cell-based, FAP fluorogen, flow cytometry, validation set, pilot screen (AID 504459);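 note: agonist-driven loss of surface beta2AR via internalization measured by FAP dye flow cytometry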
- Assay conditions: Am2.2-beta2AR cells, at 10 µM, stronger effect = higher value
Endpoint: response (%)
Quick note: give the figure in %, leave out the unit.

Below are worked cases with known answers.
>  <Compound>
Cc1ccc(Nc2ncccc2C(=O)O)cc1C

>  <response [%]>
0.08

$$$$
>  <Compound>
COc1ccc(C2CC(c3c(O)cc(C)oc3=O)=NCCS2)c(OC)c1 (configuration not stated)

>  <response [%]>
19.6

$$$$
>  <Compound>
O=C(c1ccco1)N1CCCN(Cc2nc(-c3ccc4c(c3)OCO4)no2)CC1

>  <response [%]>
-9.4

$$$$
>  <Compound>
CC(C)(C)n1c(=O)[nH]c2c(c1=O)CCC2

>  <response [%]>
-17.6

$$$$
>  <Compound>
CN(C)CCCN1c2ccccc2Sc2ccc(C(F)(F)F)cc21

>  <response [%]>
26.6

$$$$

So what's the measured response for this one? COCCn1c(SCCOc2ccccc2)nc2ccccc2c1=O
-6.97

Lookup CC12CC(c3ccccc3O1)C(C(=O)N1CCOCC1)C(=O)N2 (configuration not stated)
6.73
